Source of measurements: paper PMC2568025

- System: IP3R
- protocol-details: IP3-evoked Ca^2+ release from permeabilized cells
- cond: read-out: EC50 for potentiation of IP3-evoked Ca^2+ release; permeabilized cells
readout: pEC50
When answering, recall that pEC50 equals minus log10 of the concentration in mol/L, and write that number alone.

The value of pEC50 measured for the compound `Nc1ncnc2c1nc(Br)n2[C@@H]1O[C@@H]2COP(=O)(O)O[C@H]2[C@H]1O` turned out to be 3.49
